Experiment Summary: Oral steady-state volume of distribution in wild-type Sprague-Dawley rat at 4 mg/kg
Type: ADME, organism-based
Design: dose 4 mg/kg
Condition Context: in vivo, read-out: Vss/F
Measure: Vd/F (L/kg)
Write the answer as a number in L/kg, unit excluded.

Query: Given the entry `COc1ccc(-n2nc(C(N)=O)c3c2C(=O)N(c2ccc(N4CCCCC4=O)cc2)CC3)cc1` , report its measured Vd/F.
Result: 5.8

---

Experiment Summary: Oral steady-state volume of distribution in Sprague-Dawley rat at 4 mg/kg administered 1 hr post GF-120918 treatment
Assay type: ADME, organism-based
Set-up: dose 4 mg/kg
Condition Context: in vivo, with GF-120918, read-out: Vss/F
Measure: Vd/F (L/kg)
Note: unit L/kg is implicit; provide only the numeric part.

Query: Given the compound `COc1ccc(-n2nc(C(N)=O)c3c2C(=O)N(c2ccc(N4CCCCC4=O)cc2)CC3)cc1` , what is its reported Vd/F?
Result: 0.7

---

Experiment Summary: Apparent oral clearance in beagle dog at 5 mg/kg, po followed by activated charcoal administration 3 hrs post compound dosing
Assay type: ADME, organism-based, Canis lupus familiaris
Parameters: dose 5 mg/kg, route oral
Condition Context: in vivo
Measure: CL/F (mL/min/kg)
Supply the numeric figure in mL/min/kg, leaving out any unit text.

Query: Report CL/F for `COc1ccc(-n2nc(C(N)=O)c3c2C(=O)N(c2ccc(N4CCCCC4=O)cc2)CC3)cc1` please.
Result: 1.68

---

Experiment Summary: Drug recovery in urine of beagle dog at 5 mg/kg, po measured up to 72 hrs
Format: ADME, organism-based, Canis lupus familiaris
Parameters: dose 5 mg/kg, route oral
Condition Context: read-out: Drug recovery
Measure: dose excreted at 72 h (%)
Give the value, in units of %, as a plain number.

Query: Any idea what its dose excreted at 72 h is? The compound is `COc1ccc(-n2nc(C(N)=O)c3c2[14C](=O)N(c2ccc(N4CCCCC4=O)cc2)CC3)cc1`
Result: 8.8

---

Experiment Summary: Drug recovery in urine of bile duct-cannulated Sprague-Dawley rat at 30 mg/kg, po measured up to 48 hrs
Type: ADME, organism-based
Set-up: dose 30 mg/kg, route oral
Condition Context: read-out: Drug recovery
Measure: dose excreted at 48 h (%)
Kindly provide the numeric value in % only, without the unit symbol.

Query: Any idea what its dose excreted at 48 h is? The compound is `COc1ccc(-n2nc(C(N)=O)c3c2[14C](=O)N(c2ccc(N4CCCCC4=O)cc2)CC3)cc1`
Result: 10.5

---

Experiment Summary: Drug recovery in urine of bile duct-cannulated beagle dog at 1 mg/kg, iv administered as 5 mins infusion measured up to 72 hrs
Type: ADME, organism-based, Canis lupus familiaris
Parameters: dose 1 mg/kg, route intravenous
Condition Context: read-out: Drug recovery
Measure: dose excreted (%)
Please reply with the bare figure in % and do not write the unit itself.

Query: For `COc1ccc(-n2nc(C(N)=O)c3c2[14C](=O)N(c2ccc(N4CCCCC4=O)cc2)CC3)cc1` , what is its reported dose excreted?
Result: 13.5

---

Experiment Summary: AUC (0 to 24 hrs) in beagle dog at 5 mg/kg, po followed by activated charcoal administration 1 hr post compound dosing
Assay type: ADME, organism-based, Canis lupus familiaris
Set-up: time < 24 hr, dose 5 mg/kg, route oral
Condition Context: plasma
Measure: AUC(0-t) at 24 h (ng·h/mL)
Your answer is read as ng·h/mL, so omit the unit and give the number.

Query: Quick one: AUC(0-t) at 24 h of `COc1ccc(-n2nc(C(N)=O)c3c2C(=O)N(c2ccc(N4CCCCC4=O)cc2)CC3)cc1` ?
Result: 63900
